Sourced from patent US8822517B2

- experimental_system: adrenergic α1A receptor (Homo sapiens, UniProt P35348)
- Sequence (P35348 whole entry): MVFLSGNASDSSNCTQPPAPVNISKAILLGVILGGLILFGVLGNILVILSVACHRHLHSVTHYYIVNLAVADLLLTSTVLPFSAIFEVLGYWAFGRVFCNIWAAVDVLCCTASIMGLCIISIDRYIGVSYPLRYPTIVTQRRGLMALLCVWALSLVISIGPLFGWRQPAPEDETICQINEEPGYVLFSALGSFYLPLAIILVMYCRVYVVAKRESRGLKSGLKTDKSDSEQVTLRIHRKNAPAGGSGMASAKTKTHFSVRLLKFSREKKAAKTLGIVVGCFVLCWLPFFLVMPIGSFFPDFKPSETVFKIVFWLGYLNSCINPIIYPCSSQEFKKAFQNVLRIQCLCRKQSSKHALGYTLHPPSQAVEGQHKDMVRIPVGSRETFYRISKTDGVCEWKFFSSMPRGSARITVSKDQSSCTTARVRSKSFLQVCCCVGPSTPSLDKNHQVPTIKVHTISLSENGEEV
- experimental_details: Cellular functional assay, adrenergic α1A receptor (agonism/antagonism)
- Format: cell-based
- setup_conditions: agonist effect, percent of control specific agonist response; compounds tested at 1×10^−6M; read-out: α1A -ag [%]
measurement_name: activation at 1 µM (%)
Provide only the numeric value, understood in %.

Previously resolved entries follow.
compound="O=S(=O)(NCCCCN1CCN(c2nsc3ccccc23)CC1)c1cc2ccc(Cl)cc2s1 [Compound 241]" measurement_name="activation at 1 µM" result_unit=% recorded_number=0
compound="O=S(=O)(NCCCCN1CCC(c2noc3cc(F)ccc23)CC1)c1ccc(Br)cc1 [Compound 298]" measurement_name="activation at 1 µM" result_unit=% recorded_number=1

Query string: Note down activation at 1 µM recorded for O=S(=O)(NCCCCN1CCN(c2nsc3ccccc23)CC1)c1cccc2ccccc12 [Compound 1]
Result string: 0

Query string: Note down activation at 1 µM recorded for O=S(=O)(NCCCCN1CCN(c2cccc3[nH]ccc23)CC1)c1cnc2ccccn12 [Compound 30]
Result string: 0

###

- experimental_system: serotoninergic 5-HT7 receptor (Homo sapiens)
- experimental_details: Binding assay 5-HT7 (h), [3H]LSD, CHO cells
- Design: expressed in transfected cells; host or cells: CHO cells
- setup_conditions: read-out: 5-HT7
inhibition at 1 µM for assorted compounds

Previously resolved entries follow.
compound="Cc1cccc(S(=O)(=O)NCCCCN2CCN(c3noc4ccccc34)CC2)c1 [Compound 15]" result=100%
compound="Cc1[nH]c2ccc(Cl)cc2c1C1=CCN(CCCNS(=O)(=O)c2cccc3ccccc23)CC1 [Compound 441]" result=82%

Switching to the query record.
Query string: Note down inhibition at 1 µM recorded for Cc1cccc(S(=O)(=O)NCCN2CCN(c3nsc4ccccc34)CC2)c1 [Compound 11]
Result string: 99%

###

- experimental_system: serotoninergic 5-HT7 receptor (Homo sapiens, UniProt P34969)
- Sequence (P34969 whole entry): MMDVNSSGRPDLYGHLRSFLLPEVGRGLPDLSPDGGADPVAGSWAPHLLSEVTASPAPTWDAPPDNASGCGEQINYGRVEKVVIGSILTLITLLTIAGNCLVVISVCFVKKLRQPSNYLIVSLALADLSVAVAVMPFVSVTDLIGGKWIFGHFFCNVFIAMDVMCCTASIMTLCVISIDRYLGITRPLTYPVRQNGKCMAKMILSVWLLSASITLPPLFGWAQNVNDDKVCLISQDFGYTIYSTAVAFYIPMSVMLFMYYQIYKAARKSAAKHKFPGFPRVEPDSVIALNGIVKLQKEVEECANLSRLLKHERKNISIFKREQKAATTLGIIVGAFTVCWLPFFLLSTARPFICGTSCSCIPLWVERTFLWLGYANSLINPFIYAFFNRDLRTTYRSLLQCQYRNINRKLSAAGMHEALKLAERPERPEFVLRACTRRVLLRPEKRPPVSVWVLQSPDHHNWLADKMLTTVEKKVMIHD
- experimental_details: Binding assay 5-HT7 (h), [3H]LSD, CHO cells
- Set-up: expressed in transfected cells; host or cells: CHO cells
- setup_conditions: read-out: 5-HT7
inhibition at 1 µM for assorted compounds
Provide only the numeric value, understood in %.

Previously resolved entries follow.
compound="O=S(=O)(NCCCN1CCC(c2noc3cc(F)ccc23)CC1)c1cnc2ccccn12 [Compound 356]" measurement_name="inhibition at 1 µM" recorded_number=99
compound="O=S(=O)(NCCCCN1CCN(c2nsc3ccccc23)CC1)c1cccc(O)c1 [Compound 231]" measurement_name="inhibition at 1 µM" recorded_number=99
compound="O=S(=O)(NCCCCN1CCN(c2nsc3ccccc23)CC1)c1ccc(Cl)s1 [Compound 195]" measurement_name="inhibition at 1 µM" recorded_number=98
compound="O=S(=O)(NCCCN1CCN(c2nsc3ccccc23)CC1)c1cccc(O)c1 [Compound 254]" measurement_name="inhibition at 1 µM" recorded_number=93
compound="O=S(=O)(NCCCN1CCN(c2cccc3c2OCCO3)CC1)c1ccc2ccccc2c1 [Compound 406]" measurement_name="inhibition at 1 µM" recorded_number=92

Query string: Note down inhibition at 1 µM recorded for O=S(=O)(NCCCN1CCC(c2noc3cc(F)ccc23)CC1)c1ccc2c(c1)OCO2 [Compound 354]
Result string: 96

Query string: Note down inhibition at 1 µM recorded for O=S(=O)(NCCCCN1CCN(c2cccc3c2OCCO3)CC1)c1cccc(F)c1 [Compound 388]
Result string: 90

Query string: Note down inhibition at 1 µM recorded for O=S(=O)(NCCCN1CCN(c2nsc3ccccc23)CC1)c1ccc(OC(F)(F)F)cc1 [Compound 259]
Result string: 96
